# Test system: Aspergillus flavus
# assay_protocol: Antifungal activity against Aspergillus flavus KCCM 11899 after 2 days
# Assay type: functional
# experimental_context: KCCM 11899, 48 h
MIC for assorted compounds
Just the number in µg/mL, nothing appended.

COC(=O)c1c(N)oc2c(C)c(C)c(O)cc12
25
COC(=O)c1c(N)oc2cc(C)c(O)cc12
25
COC(=O)c1c(N)oc2c(C)c(C)c(O)c(Sc3ccc(C)cc3)c12
25
N#Cc1c(N)oc2ccc(O)cc12
12.5

Prompt: Form: Entry = `Nc1nc(=O)[nH]cc1F` | System = Aspergillus flavus | MIC = ____
Response: 6.3

Just for reference, ChEMBL document CHEMBL1268841 is where these values come from.
